Just for reference, ChEMBL document CHEMBL3046746 is where these values come from.

molecular target: Gamma-aminobutyric acid receptor subunit alpha-3/ beta-3/gamma-3 (Homo sapiens, UniProt P28472+P34903+Q99928); assay: Binding affinity to GABAA alpha3beta3gamma3 (unknown origin)
Sequence (Q99928 whole entry, one chain of several): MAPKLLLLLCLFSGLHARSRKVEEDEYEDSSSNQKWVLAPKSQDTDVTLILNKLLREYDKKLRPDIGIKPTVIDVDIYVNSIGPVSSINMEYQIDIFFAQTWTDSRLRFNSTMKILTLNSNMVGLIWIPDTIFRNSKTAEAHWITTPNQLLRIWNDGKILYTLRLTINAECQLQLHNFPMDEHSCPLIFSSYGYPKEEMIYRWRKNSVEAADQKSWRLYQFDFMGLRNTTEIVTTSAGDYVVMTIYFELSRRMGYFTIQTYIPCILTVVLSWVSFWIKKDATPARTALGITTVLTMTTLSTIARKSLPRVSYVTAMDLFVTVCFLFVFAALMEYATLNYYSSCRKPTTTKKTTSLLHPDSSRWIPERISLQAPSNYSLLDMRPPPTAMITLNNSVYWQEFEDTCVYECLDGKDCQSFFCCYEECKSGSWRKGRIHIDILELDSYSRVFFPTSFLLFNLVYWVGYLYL
Sequence (P34903 whole entry, one chain of several): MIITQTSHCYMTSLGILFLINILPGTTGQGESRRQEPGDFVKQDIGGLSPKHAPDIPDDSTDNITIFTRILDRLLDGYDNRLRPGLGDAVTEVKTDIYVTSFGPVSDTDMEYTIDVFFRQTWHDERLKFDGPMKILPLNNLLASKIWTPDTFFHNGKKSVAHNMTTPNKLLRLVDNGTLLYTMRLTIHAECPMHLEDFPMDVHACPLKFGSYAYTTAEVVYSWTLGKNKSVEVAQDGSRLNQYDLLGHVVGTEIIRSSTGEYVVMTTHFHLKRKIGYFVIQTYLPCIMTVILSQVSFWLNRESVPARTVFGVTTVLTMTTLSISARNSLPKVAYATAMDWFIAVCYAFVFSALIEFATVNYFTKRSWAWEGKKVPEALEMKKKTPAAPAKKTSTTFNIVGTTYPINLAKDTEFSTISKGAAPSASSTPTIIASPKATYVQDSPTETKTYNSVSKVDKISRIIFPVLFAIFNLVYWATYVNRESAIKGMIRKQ
VALUE_KIND: pKi
Kindly note that pKi refers to -log10 of the concentration in mol/L and answer with the value alone.

Which pKi value is on record for CC1(C)CC(=O)c2c(SCCO)sc(-c3nccs3)c2C1 ?
7.70

---

target: GABA-A receptor; alpha-5/beta-3/gamma-2 (Homo sapiens, UniProt P18507+P28472+P31644); test: Inverse agonist activity at GABAA alpha5beta3gamma2 in Homo sapiens (human) L(tk-) cells by patch clamp assay
Sequence (P18507 whole entry): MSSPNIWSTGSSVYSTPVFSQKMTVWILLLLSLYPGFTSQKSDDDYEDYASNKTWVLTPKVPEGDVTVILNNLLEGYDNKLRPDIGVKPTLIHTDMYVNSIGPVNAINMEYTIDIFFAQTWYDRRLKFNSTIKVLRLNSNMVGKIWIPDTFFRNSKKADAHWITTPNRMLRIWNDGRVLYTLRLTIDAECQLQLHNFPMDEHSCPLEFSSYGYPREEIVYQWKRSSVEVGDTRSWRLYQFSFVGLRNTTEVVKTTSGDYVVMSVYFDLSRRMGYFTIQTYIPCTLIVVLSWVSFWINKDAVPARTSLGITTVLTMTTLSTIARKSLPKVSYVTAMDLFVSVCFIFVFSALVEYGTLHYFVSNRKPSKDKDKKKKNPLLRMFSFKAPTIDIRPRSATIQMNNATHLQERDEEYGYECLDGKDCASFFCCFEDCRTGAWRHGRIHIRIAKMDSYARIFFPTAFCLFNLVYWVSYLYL
Sequence (P28472 whole entry): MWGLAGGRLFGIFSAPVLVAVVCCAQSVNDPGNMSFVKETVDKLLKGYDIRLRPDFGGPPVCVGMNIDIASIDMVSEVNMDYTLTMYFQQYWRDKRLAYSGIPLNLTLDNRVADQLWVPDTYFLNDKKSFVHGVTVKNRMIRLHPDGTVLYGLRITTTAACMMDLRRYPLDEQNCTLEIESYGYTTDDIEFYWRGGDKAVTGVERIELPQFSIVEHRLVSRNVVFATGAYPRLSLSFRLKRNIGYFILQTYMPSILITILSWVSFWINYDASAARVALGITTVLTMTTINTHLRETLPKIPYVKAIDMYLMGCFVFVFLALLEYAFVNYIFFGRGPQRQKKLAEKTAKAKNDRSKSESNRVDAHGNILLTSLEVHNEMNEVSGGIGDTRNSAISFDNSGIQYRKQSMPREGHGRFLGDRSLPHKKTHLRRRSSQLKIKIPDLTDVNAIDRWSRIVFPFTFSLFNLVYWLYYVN
Sequence (P31644 whole entry): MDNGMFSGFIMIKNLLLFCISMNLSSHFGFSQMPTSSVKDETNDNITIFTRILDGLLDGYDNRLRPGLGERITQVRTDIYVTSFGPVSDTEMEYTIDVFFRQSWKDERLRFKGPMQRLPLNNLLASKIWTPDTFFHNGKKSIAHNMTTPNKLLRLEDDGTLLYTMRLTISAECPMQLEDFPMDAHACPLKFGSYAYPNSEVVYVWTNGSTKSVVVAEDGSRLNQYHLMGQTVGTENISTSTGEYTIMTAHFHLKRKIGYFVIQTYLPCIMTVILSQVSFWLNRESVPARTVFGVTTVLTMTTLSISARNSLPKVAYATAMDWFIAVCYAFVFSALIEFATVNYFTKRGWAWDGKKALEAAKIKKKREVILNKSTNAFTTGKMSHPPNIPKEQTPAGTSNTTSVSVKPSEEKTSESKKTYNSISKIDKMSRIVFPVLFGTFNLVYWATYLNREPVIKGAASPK
VALUE_KIND: pEC50
Kindly note that pEC50 refers to -log10 of the concentration in mol/L and answer with the value alone.

Which pEC50 value is on record for CC1(C)CC(=O)c2c(SCCO)sc(-c3nccs3)c2C1 ?
9.15
